targetSystem: acetylcholine receptor
testDetails: SPR, AchR immobilised on CM5 chip, peptide at 10 uM
measurementName: Binding affinity (RU)

KHTER [5mer-878]: 24
RFSEK [5mer-1190]: 32

a = RDSMK [5mer-1184]
b = KMENR [5mer-857]
Problem: Given the entries a and b , determine which has the lower reported Binding affinity (RU). Pick one; state its label.
a

A = KKNAK [5mer-862]
B = RKQVYK [6mer-1-465]
C = RKPMR [5mer-892]
Sequence the entries by Binding affinity (RU), beginning with the highest number. The labels, placed in the requested order, form the answer.
B, C, A

1 = KIKKK [5mer-1162]
2 = KHNAR [5mer-859]
3 = RKSVCK [6mer-1-417]
Reorder: Binding affinity (RU), max to min. Give your ranking as a list of the labels in the requested order.
3, 2, 1
